# system: T1, human CD3 expressed on cells (human, UniProt P07766 23-207; P04234 22-171; P09693 23-182)
# T1 construct: whole, on cells; CD3 complex on Jurkat cells and on human primary T cells
# T1 sequence (P07766 23-207, chain 1 of 3): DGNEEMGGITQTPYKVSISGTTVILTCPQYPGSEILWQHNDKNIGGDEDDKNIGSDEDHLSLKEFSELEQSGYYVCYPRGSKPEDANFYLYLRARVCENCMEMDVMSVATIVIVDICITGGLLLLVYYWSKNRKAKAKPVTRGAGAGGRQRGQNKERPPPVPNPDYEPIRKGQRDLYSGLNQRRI
# T1 sequence (P04234 22-171, chain 2 of 3): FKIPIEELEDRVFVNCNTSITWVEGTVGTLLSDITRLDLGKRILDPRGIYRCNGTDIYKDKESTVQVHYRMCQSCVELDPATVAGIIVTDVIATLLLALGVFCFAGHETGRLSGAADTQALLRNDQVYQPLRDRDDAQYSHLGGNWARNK
# T1 sequence (P09693 23-182, chain 3 of 3): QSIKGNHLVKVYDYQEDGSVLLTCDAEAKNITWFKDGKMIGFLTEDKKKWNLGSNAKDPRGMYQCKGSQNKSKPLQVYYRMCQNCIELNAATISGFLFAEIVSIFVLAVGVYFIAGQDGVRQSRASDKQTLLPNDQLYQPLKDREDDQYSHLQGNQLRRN
# assay method text: flow cytometry, 25 nM
This listing pairs binders with measured Jurkat Cell Binding (FOI).
Report only the number, with the unit FOI understood.

Reference set (2 entries):
| binder | result units | recorded number |
| --- | --- | --- |
| mAb 117 (antibody, V domains shown) VH: EVQLVESGGGLVKTGGSLRLSCVASGFSFKKAWMNWVRQAPGKGLEWVGRIKRNTDGGTTDYAAPVKGRFTLSRDDSKNTLYLQMNSLKTEDTAVYYCTTLDSSSLYVGYYYMDVWGKGTTVTVSS VL: DIQMTQSPSSVSASVGDRVTITCRASQDINNWLAWYQQKPGKAPKLLIYTASSLQSGVPSRFSGSGSGTDFTLTISSLQPEDFATYYCQQAHSLPITFGQGTRLEIK | FOI | 155 |
| mAb 67 (antibody, V domains shown) VH: EVQLVESGGDLVQPGRSLRLSCAASGFTFDDCVIHWVRQAPGKGLEWVSGITWNSGRIGYADSVKGRFTISRDNAKNSLYLQMNSLRVEDTALYYCAKEGNYDFWSTYYRGYFDLWGRGTLVTVSS VL: DIQMTQSPSSLSASVGDRVTITCRASQGIRNDLGWYQQKPGIAPKRLIYAASSLQGGVPLRFSGSGSGTEFTLTISSLQPEDFATYYCLQHNSYPYTFGQGTKLEIK | FOI | 70.2 |

Please examine the following record next.
Q. Query: Jurkat Cell Binding (FOI); subject: mAb 122 (antibody, V domains shown) VH: EVQLVESGGGLVKTGGSLRLSCVASGFSFKKAWMNWVRQAPGKGLEWVGRIKRNTDGGTADYAAPVKGRFTLSRDDSKKTLYLQMNSLKTEDTAVYYCTTLDSSSRYVGYYYMDVWGKGTTVTVSS VL: DIQMTQSPSSVSASVGDRVIITCRASQDINNWLAWYQQKPGKVPKLLIYTASSLQSGVPSRFSGSGSGTDFTLTIGSLQPEDFATYYCQQAHSLPITFGQGTRLEIK
A. 199
